Data credit: the supplement of paper PMC9170038

# Tested on: K4 kissing-loop RNA reporter;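 note: bound reporter read as fluorescence of individual clusters on recovered sequencing chips by microscopy, with normalized cluster intensities fitted with a binding model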
# experimentNotes: apparent KD of K4 kissing-loop reporter; higher = weaker reporter binding
# statedConditions: Eterna round: R107; input ligand: FMN 200 uM
List of apparent KD of K4 kissing-loop reporter values.
Quick reminder: number only, in nM, skip the unit.

In: What does the record list as apparent KD of K4 kissing-loop reporter for GCCGUACGCAUGGAUACCAGCAAUUAUGCUCGUGAUCUAGUGAUGUUAGUGGCGAAAGUUUGCCCUUGGCAGCCAUGCGUACGGC ?
Out: 224

In: Need apparent KD of K4 kissing-loop reporter, item UUGAUAUGAUAAUAUCCUGUUUGAUAAAGACAGGAUAUAGAAAAUACUAGAAGGGUCAUUAUAUGCAGUGAUGUUGCAAAUAAGU [Exclusion FMN A Gf 23]
Out: 42.2

In: Item under review: UAGUCUCGAGUCUGAGAUUACGGGUCAGAUACCAGACUAGAGAUAGUCCCUUGGCAGCUGAAGUUCAGUGAUGUUGAACGGAUUA [Theo B SS t10a] . Reported apparent KD of K4 kissing-loop reporter?
Out: 501
